Reported cleaved PLV relative to Arf1p (arbitrary units) values follow for various binders
- target.system: T1, Sec61-CPLV (S. cerevisiae)
- T1 sequence (P32915 whole entry, looked up): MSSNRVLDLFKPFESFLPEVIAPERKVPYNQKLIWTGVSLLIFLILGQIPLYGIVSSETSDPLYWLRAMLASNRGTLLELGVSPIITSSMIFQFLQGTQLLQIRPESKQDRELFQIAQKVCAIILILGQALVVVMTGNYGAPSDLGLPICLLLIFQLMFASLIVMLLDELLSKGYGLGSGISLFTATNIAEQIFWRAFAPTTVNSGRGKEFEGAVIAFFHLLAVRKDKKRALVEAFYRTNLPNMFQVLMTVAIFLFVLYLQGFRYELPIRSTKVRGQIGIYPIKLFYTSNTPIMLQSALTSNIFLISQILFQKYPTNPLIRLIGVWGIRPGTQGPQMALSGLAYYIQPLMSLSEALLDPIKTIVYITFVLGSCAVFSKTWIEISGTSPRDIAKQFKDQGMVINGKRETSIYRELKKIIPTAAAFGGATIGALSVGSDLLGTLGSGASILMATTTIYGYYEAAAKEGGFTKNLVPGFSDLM
- test.details: split reporter (BiFC, NanoBiT); split-ubiquitin, cleavage of PLV from the bait read by quantitative immunoblot of cell lysates with anti-PLV and 125I-Protein A; ratio of cleaved PLV to Arf1p

| binder | value.reported |
| --- | --- |
| Nub-Sec62p (natural protein) MSAVGPGSNAGASVNGGSATAIATLLRNHKELKQRQGLFQAKQTDFFRYKRFVRALHSEEYANKSARQPEIYPTIPSNKIEDQLKSREIFIQLIKAQMVIPVKKLHSQECKEHGLKPSKDFPHLIVSNKAQLEADEYFVWNYNPRTYMDYLIVIGVVSIILALVCYPLWPRSMRRGSYYVSLGAFGILAGFFAVAILRLILYVLSLIVYKDVGGFWIFPNLFEDCGVLESFKPLYGFGEKDTYSYKKKLKRMKKKQAKRESNKKKAINEKAEQN | 6.6 |

Nub-Sbh1p (natural protein) MSSPTPPGGQRTLQKRKQGSSQKVAASAPKKNTNSNNSILKIYSDEATGLRVDPLVVLFLAVGFIFSVVALHVISKVAGKLF yielded cleaved PLV relative to Arf1p (arbitrary units) of 18

Nub-Sss1p (natural protein) MARASEKGEEKKQSNNQVEKLVEAPVEFVREGTQFLAKCKKPDLKEYTKIVKAVGIGFIAVGIIGYAIKLIHIPIRYVIV yielded cleaved PLV relative to Arf1p (arbitrary units) of 15

Nub-Sbh2p (natural protein) MAASVPPGGQRILQKRRQAQSIKEKQAKQTPTSTRQAGYGGSSSSILKLYTDEANGFRVDSLVVLFLSVGFIFSVIALHLLTKFTHII yielded cleaved PLV relative to Arf1p (arbitrary units) of 9.6

Sourced from paper PMC3618304
